B1: OR4K15 (parent)
chain: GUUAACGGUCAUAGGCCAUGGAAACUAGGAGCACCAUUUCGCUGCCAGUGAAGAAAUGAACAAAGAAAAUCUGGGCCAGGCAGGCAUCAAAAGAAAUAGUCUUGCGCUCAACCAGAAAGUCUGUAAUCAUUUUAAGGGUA

variants of: B1; test: self-cleavage, relative activity (ratio to wild type); higher = more cleavage; in vitro, sequencing; the parent is a self-cleaving ribozyme
assay metric: self-cleavage
Give the figure by itself; no unit, no explanation.

variant | assay metric | assay value
A55G U132A | self-cleavage | 1.61
A117U U130C | self-cleavage | 1.05
A22G A129G | self-cleavage | 0.61
A60G C105A | self-cleavage | 0.04

Consider the variant C71U U132C and give its measured self-cleavage.
0.25

How about this variant: A51U A125U
1.64

How about this variant: A86G A98G
0.52

How about this variant: A5U A60G
0.99

How about this variant: A66G G104C
0.01

How about this variant: G41U A66G
1.11
